B1: TPR 5TU (parent)
chain: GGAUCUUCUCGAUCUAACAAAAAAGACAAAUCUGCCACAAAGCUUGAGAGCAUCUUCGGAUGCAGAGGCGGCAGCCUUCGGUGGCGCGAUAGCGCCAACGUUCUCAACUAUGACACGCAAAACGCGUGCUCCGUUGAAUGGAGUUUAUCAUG

# Variants of: B1
# EXPERIMENT: polymerase ribozyme fitness, log enrichment relative to wild type (log ratio); higher = more active; in vitro selection for triplet polymerase activity
Fewer inactive variants are shown than the library holds.
REPORTED_ENDPOINT: polymerase ribozyme fitness (log ratio)

VARIANT_DESCRIPTION	VALUE_QUALIFIER	RECORDED_VALUE
C75G G88A U146G	≤	-4.2
G68A U77A G81A U111A G126U	≤	-4.2
A29U C96U	=	-3.19
A19C U53A G92A	=	-3.8
G86A A110U	≤	-4.2
C63G G83A A98C U104A	=	-0.841
A40C G94U C95G	=	-3.87
C76A A122U	=	0.592
U15C U55G	=	0.263
C27A U61A G86A	≤	-4.2
C51A C57U G59U G100C A119U A122U U145G	=	-4.13
A3U C5G U7C A30C C36U U55A A60G C75U C87G U101A A119C C123G G143U	≤	-4.2
A16U A29G A30U U53A U55A G62C U77G C116U	≤	-4.2
U82G G100U G128A	≤	-4.2
U4G C8G A23C A52G C54G G74C	≤	-4.2
G50C C87U A150C U151A	≤	-4.2
C32U G83U G126A	=	-4.19
A119U U144A	=	-0.171
A37C A40C A66U C75G G94U A120G C131G G141A	≤	-4.2
C85U A91U C95G G140U	≤	-4.2
A22U G81A A106C G128A U139C	=	-3.92
U44G A60U C99G U111G G141C	≤	-4.2
